# credit: patent US11116771B2

test system: Staphylococcus aureus ATCC 700699; assay: MIC by micro-broth dilution, S. aureus ATCC 700699; format: cell-based; settings: Staphylococcus aureus, ATCC700699; ATCC 700699 (48 hours); read-out: MIC90
Measured MIC90 of individual entries
Express your answer in µg/mL, writing the number without its unit.

O=C1C2=C(CCN(Cc3ccccc3)C2)N2CCN=C2N1Cc1ccc(F)cc1F    12.5

Task item: Query (compound): O=C1C2=C(CCN(Cc3ccccc3)C2)N2CCN=C2N1Cc1ccc(F)c(F)c1 ; field requested: MIC90
Reply: 6.25

Task item: GET /values?readout=MIC90&item= O=C1C2=C(CCN(Cc3ccccc3)C2)N2CCN=C2N1Cc1ccc(C(F)(F)F)cc1
Reply: 6.25

###

tested on: Staphylococcus aureus ATCC 33591; test: MIC by micro-broth dilution, S. aureus ATCC 33591; type: cell-based; settings: ATCC33591; Staphylococcus aureus (ATCC 33591), methicillin resistant; read-out: MIC
reported_endpoint: MIC (µg/mL)
Please state the figure in µg/mL; there is no need to write the unit.

Use these answered entries as a reference point.
O=C1C2=C(CCN(Cc3ccccc3)C2)N2CCN=C2N1Cc1ccc(C(F)(F)F)cc1    3.13
O=C1C2=C(CCN(Cc3ccccc3)C2)N2CCN=C2N1Cc1ccc(F)c(F)c1    3.13

# input for lookup
Task item: What value of measured MIC is listed for O=C1C2=C(CCN(Cc3ccccc3)C2)N2CCN=C2N1Cc1ccc(F)cc1F ?
Reply: 12.5

###

Assay: Mouse tolerability (non-GLP oral single dose / MTD study)
Assay type: in vivo
Conditions: in vivo; mouse; non-GLP oral single dose study / MTD study
Procedure: ONC212 25 mg/kg represents NOAEL in mouse and rat non-GLP oral single dose studies which is also the efficacious dose in mouse xenograft studies. […]. Dual targeting of DRD2/3 and GPR132/91 represents a novel strategy for anti-cancer efficacy without toxicity. […] […]. […] […].
Attribute: NOAEL
Reply numerically in mg/kg, unit not repeated.

O=C1C2=C(CCN(Cc3ccccc3)C2)N2CCN=C2N1Cc1ccc(F)c(F)c1    75

Turning now to a further molecule:
Task item: What value of measured NOAEL is listed for O=C1C2=C(CCN(Cc3ccccc3)C2)N2CCN=C2N1Cc1ccc(C(F)(F)F)cc1 ?
Reply: 25

###

test system: Staphylococcus aureus ATCC 33591; test: MIC by micro-broth dilution, S. aureus ATCC 33591; type: cell-based; conditions: Staphylococcus aureus, ATCC33591; ATCC 33591; 24 hours; read-out: MIC95
reported_endpoint: MIC (µg/mL)
The reply should contain only the number, in µg/mL.

Check out these entries, answers already filled in.
O=C1C2=C(CCN(Cc3ccccc3)C2)N2CCN=C2N1Cc1ccc(C(F)(F)F)cc1    6.25
O=C1C2=C(CCN(Cc3ccccc3)C2)N2CCN=C2N1Cc1ccc(F)cc1F    25

Could you now consider this next compound?
Task item: Would you kindly share the measured MIC for O=C1C2=C(CCN(Cc3ccccc3)C2)N2CCN=C2N1Cc1ccc(F)c(F)c1 ?
Reply: 6.25

###

Some molecules, each annotated with its measured MIC.
tested on: Staphylococcus aureus ATCC 29213; assay: MIC by micro-broth dilution, S. aureus ATCC 29213; assay type: cell-based; conditions: ATCC29213; wild type Staphylococcus aureus (ATCC 29213); read-out: MIC
Answer format: numeric, µg/mL implied, no suffix.

Below are worked cases with known answers.
O=C1C2=C(CCN(Cc3ccccc3)C2)N2CCN=C2N1Cc1ccc(F)cc1F [ONC206]    6.25
O=C1C2=C(CCN(Cc3ccccc3)C2)N2CCN=C2N1Cc1ccc(C(F)(F)F)cc1 [ONC212]    3.13

From here, focus on the item given below.
Task item: Which value of MIC has been reported for O=C1C2=C(CCN(Cc3ccccc3)C2)N2CCN=C2N1Cc1ccc(F)c(F)c1 [ONC213] in the records?
Reply: 25
